Items are presented alongside their recorded combination Emax.
- System: SNU-175 (Colorectal Carcinoma)
- ASSAY DETAILS: combination Emax (second highest fraction inhibited in the dose matrix, 72 h); higher = more inhibition; extreme values may be limits of the assay
// return a plain number; no unit text

Result for Cc1c2c(nn1C)CSCc1cc(n(C)n1)CSc1cc(c3ccccc3c1)OCCCc1c(C(=O)O)n(C)c3c-2c(Cl)ccc13 [AZD5991] + C=CCn1c(=O)c2cnc(Nc3ccc(N4CCN(C)CC4)cc3)nc2n1-c1cccc(C(C)(C)O)n1 [AZD1775] (first compound max 1 µM, partner max 1 µM) , tested on SNU-175 (Colorectal Carcinoma), combination Emax: 0.868

The reported SNU-175 (Colorectal Carcinoma) combination Emax of CN(C)CCCOc1ccc(-c2ccc3ncc4c(c3c2)n(C2CCOCC2)c(=O)n4C)cn1 [AZD0156] + CCN(CCO)CCCOc1ccc2c(Nc3cc(CC(=O)Nc4cccc(F)c4)[nH]n3)ncnc2c1 [AZD2811] (first compound max 1 µM, 7x7, partner max 1 µM) is 0.604

###

- Test system: CML-T1 (Chronic Myelogenous Leukemia)
- ASSAY DETAILS: combination Emax (second highest fraction inhibited in the dose matrix, 72 h); higher = more inhibition; extreme values may be limits of the assay
READOUT NAME: combination Emax
Reply with the value as a number alone.

Look over these answered cases.
CC1(C)CCC(CN2CCN(c3ccc(C(=O)NS(=O)(=O)c4ccc(NCC5CCOCC5)c([N+](=O)[O-])c4)c(Oc4cnc5[nH]ccc5c4)c3)CC2)=C(c2ccc(Cl)cc2)C1 [Venetoclax] + Cc1cc2ncnn2cc1Nc1ncc2c(n1)n(C1CCOCC1)c(=O)n2C [AZD7648] (first compound max 1 µM, 7x7, partner max 10 µM) | 0.93
CC1(C)CCC(CN2CCN(c3ccc(C(=O)NS(=O)(=O)c4ccc(NCC5CCOCC5)c([N+](=O)[O-])c4)c(Oc4cnc5[nH]ccc5c4)c3)CC2)=C(c2ccc(Cl)cc2)C1 [Venetoclax] + C[C@@H]1COCCN1C2=NC(=NC(=C2)C3(CC3)[S@](=N)(=O)C)C4=C5C=CNC5=NC=C4 [AZD6738] (first compound max 1 µM, 7x7, partner max 10 µM) | 0.993
O=C(c1cc(Cc2n[nH]c(=O)c3ccccc23)ccc1F)N1CCN(C(=O)C2CC2)CC1 [Olaparib] + CC1(C)CCC(CN2CCN(c3ccc(C(=O)NS(=O)(=O)c4ccc(NCC5CCOCC5)c([N+](=O)[O-])c4)c(Oc4cnc5[nH]ccc5c4)c3)CC2)=C(c2ccc(Cl)cc2)C1 [Venetoclax] (first compound max 10 µM, 7x7, partner max 1 µM) | 0.946
C[C@@H](c1ccc2nccn2c1)n1nnc2ncc(-c3cnn(C)c3)nc21 [Savolitinib] + Cc1c2c(nn1C)CSCc1cc(n(C)n1)CSc1cc(c3ccccc3c1)OCCCc1c(C(=O)O)n(C)c3c-2c(Cl)ccc13 [AZD5991] (first compound max 1 µM, 7x7, partner max 1 µM) | 0.228
Cc1c2c(nn1C)CSCc1cc(n(C)n1)CSc1cc(c3ccccc3c1)OCCCc1c(C(=O)O)n(C)c3c-2c(Cl)ccc13 [AZD5991] + Cc1cc2ncnn2cc1Nc1ncc2c(n1)n(C1CCOCC1)c(=O)n2C [AZD7648] (first compound max 1 µM, 7x7, partner max 10 µM) | 0.332
C[C@@H](Oc1cc(-c2cnn(C3CCNCC3)c2)cnc1N)c1c(Cl)ccc(F)c1Cl [Crizotinib] + CC1=C(C(=CC=C1)Cl)NC(=O)C2=CN=C(S2)NC3=CC(=NC(=N3)C)N4CCN(CC4)CCO [Dasatinib] (first compound max 10 µM, 7x7, partner max 2 µM) | 0.987

Now take the following compound into account.
The measured combination Emax associated with CN(C)CCCOc1ccc(-c2ccc3ncc4c(c3c2)n(C2CCOCC2)c(=O)n4C)cn1 [AZD0156] + C[C@@H]1COCCN1C2=NC(=NC(=C2)C3(CC3)[S@](=N)(=O)C)C4=C5C=CNC5=NC=C4 [AZD6738] (first compound max 1 µM, 7x7, partner max 10 µM) reads 0.927

This collection of values is drawn from the supplement of paper PMC11061612.
